Origin of values: PubChem BioAssay

molecular target: Luciferin 4-monooxygenase (Photinus pyralis) (UniProt P08659); test: inhibition of purified Photinus pyralis luciferase – biochemical, luminescence, purified enzyme, 2006 set, primary screen (AID 1141); conditions: purified firefly luciferase, SteadyGlo luminescence, 30 min; higher = more signal, called active from +8 up or from −8 down;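 further: cell-free assay with purified firefly luciferase at 100 ng per well in PBS; test concentration not given here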
Sequence (P08659 whole entry, looked up): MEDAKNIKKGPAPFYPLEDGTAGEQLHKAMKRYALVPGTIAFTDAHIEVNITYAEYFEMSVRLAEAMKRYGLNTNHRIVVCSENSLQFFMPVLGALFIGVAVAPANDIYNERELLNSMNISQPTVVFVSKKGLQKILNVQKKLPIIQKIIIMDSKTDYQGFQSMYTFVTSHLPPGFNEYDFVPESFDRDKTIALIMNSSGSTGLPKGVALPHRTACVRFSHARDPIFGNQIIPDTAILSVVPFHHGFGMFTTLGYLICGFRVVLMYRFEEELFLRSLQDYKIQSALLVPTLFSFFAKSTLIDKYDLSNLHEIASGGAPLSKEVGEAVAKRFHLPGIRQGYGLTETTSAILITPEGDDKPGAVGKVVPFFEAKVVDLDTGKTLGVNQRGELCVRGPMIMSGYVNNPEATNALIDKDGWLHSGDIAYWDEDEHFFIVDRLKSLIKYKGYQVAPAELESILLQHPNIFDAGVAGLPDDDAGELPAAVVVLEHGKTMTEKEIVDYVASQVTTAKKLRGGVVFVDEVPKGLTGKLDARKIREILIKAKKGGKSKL
quantity.measured: z-score
No unit in the answer, please; the number alone is enough.

Consider the reported z-score for these compounds:
What is its z-score for Luciferin 4-monooxygenase (Photinus pyralis) (UniProt P08659)? Entry: "CCCC=C(CCC)[C@@H](NS(=O)(=O)CC)c1ccccc1" 2.1

What is its z-score for Luciferin 4-monooxygenase (Photinus pyralis) (UniProt P08659)? Entry: "NC(=O)NCC#Cc1ccc2c(c1)[C@]1(C(=O)N2)[C@H](c2ccc(OCCO)cc2)N2[C@H](c3ccccc3)[C@H](c3ccccc3)OC(=O)[C@H]2[C@@H]1C(=O)N1CCCCCCC1" -0.254

What is its z-score for Luciferin 4-monooxygenase (Photinus pyralis) (UniProt P08659)? Entry: "O=C(O)[C@@]1(Cc2ccccc2)COC(c2ccc(OCCCO)cc2)=N1" -3.65

What is its z-score for Luciferin 4-monooxygenase (Photinus pyralis) (UniProt P08659)? Entry: "COC(=O)C(CC#Cc1ccc2c(c1)[C@]1(C(=O)N2)[C@H](c2ccc(OCCO)cc2)N2[C@H](c3ccccc3)[C@H](c3ccccc3)OC(=O)[C@H]2[C@@H]1C(=O)O)C(=O)OC" -3.07

Further cases:
What is its z-score for Luciferin 4-monooxygenase (Photinus pyralis) (UniProt P08659)? Entry: "COCCCNC(=O)[C@@]1(Cc2ccccc2I)c2ccccc2C(=O)N(Cc2ccccc2Cl)[C@H]1c1ccc(CO)cc1" 1.29

What is its z-score for Luciferin 4-monooxygenase (Photinus pyralis) (UniProt P08659)? Entry: "CCOC(=O)C[C@H]1[C@H](OC(=O)c2ccc(C(=O)c3ccccc3)cc2)[C@@H](NC(=O)C2CCCCC2)c2cc(OCCCO)ccc2N1C(=O)Cc1ccc(OC)cc1" 0.13

What is its z-score for Luciferin 4-monooxygenase (Photinus pyralis) (UniProt P08659)? Entry: O=C1c2ccccc2C(=O)C2CC([C@H]3Oc4ccccc4S(=O)(=O)N4CCC[C@@H]34)=CCC12 (stereo partly drawn) -0.759

====

assay: blockers of DNA damage checkpoint Chk1 activation – imaging, HeLa, hydroxyurea, phospho-Chk1 nuclear intensity, primary screen (AID 1187); conditions: hydroxyurea-induced phospho-Chk1 immunofluorescence imaging, higher = more signal; further: test concentration not given here
Documented z-score across a set of compounds
No unit in the answer, please; the number alone is enough.

Consider the reported z-score for these compounds:
Dear colleague, I am looking for the recorded z-score of the following compound: "COc1ccc([Si](C)(C)[C@@H]2[C@@H](CCO)O[C@]3(C(=O)N(Cc4cccc(N5C(=O)COc6ccccc65)c4)c4ccccc43)[C@H]2C)cc1" -1.18

Dear colleague, I am looking for the recorded z-score of the following compound: "COCCOC(=O)N1C(=O)[C@@]2(c3cc(C#CCC(C(=O)OC)C(=O)OC)ccc31)[C@H](C(=O)N1CCCCCCC1)[C@H]1C(=O)O[C@H](c3ccccc3)[C@H](c3ccccc3)N1[C@@H]2c1ccc(O)cc1" -0.367

Dear colleague, I am looking for the recorded z-score of the following compound: "CO[C@H]1O[C@H](CO)[C@@H](OC(=O)c2ccc(Br)cc2)[C@@H]2OC(=O)[C@H](Cc3cccc(Br)c3)C/C=C/C[C@@H](Cc3cccc(Br)c3)C(=O)O[C@@H]12" 0.574

Dear colleague, I am looking for the recorded z-score of the following compound: "COC(=O)[C@]1(Cc2ccccc2CN=[N+]=[N-])N=C(c2ccc(OCCCO)cc2)O[C@@H]1c1ccccc1" -0.91

Dear colleague, I am looking for the recorded z-score of the following compound: C=CCC(OC(C)=O)[C@@H]1[C@@H](N(Cc2ccc(-c3ccccc3)cc2)C(=O)c2cccc3ccccc23)c2cc(OCCCO)ccc2N1C(=O)c1ccc2ccccc2n1 (some centres undefined) -0.368

Dear colleague, I am looking for the recorded z-score of the following compound: C=CCC(OC(C)=O)[C@@H]1[C@@H](N(Cc2ccc(-c3cccc(C(F)(F)F)c3)o2)C(=O)c2cccc3ccccc23)c2cc(OCCCO)ccc2N1C(=O)c1ccc(-c2ccccc2)cc1 (some centres undefined) -0.16

Dear colleague, I am looking for the recorded z-score of the following compound: O=C1c2ccccc2C(=O)C2CC([C@H]3Oc4ccccc4S(=O)(=O)N4CCC[C@@H]34)=CCC12 (some centres undefined) -0.063

Dear colleague, I am looking for the recorded z-score of the following compound: "C=CC[C@]1(C(=O)N2CCOCC2)N=C(c2ccc(OCCCO)cc2)O[C@H]1c1ccccc1CN=[N+]=[N-]" -0.429

Further cases:
Dear colleague, I am looking for the recorded z-score of the following compound: "COc1ccccc1CN1C(=O)c2ccccc2[C@](Cc2ccccc2I)(C(=O)NCCN2CCOCC2)[C@@H]1c1ccc(CO)cc1" 0.0168

Dear colleague, I am looking for the recorded z-score of the following compound: "O=C1C[C@@](C(=O)O)(c2ccc([N+](=O)[O-])cc2)[C@@H](c2ccc(CO)cc2)N1CC12CC3CC(CC(C3)C1)C2" -0.715
